# Test system: Porcine liver CES
# protocol.text: CES inhibition, spectrophotometric, 4-NPA substrate
# Format: biochemical
parameter: CES % inhibition at 20 μM (%)
Kindly provide the numeric value in % only, without the unit symbol.

Query: Would you mind telling me what CES % inhibition at 20 μM value was observed for CC(C)(C)c1cc(CNCCCCNc2c3c(nc4ccccc24)CCC3)cc(C(C)(C)C)c1O [16b] ?
Result: 17.2

Query: Would you mind telling me what CES % inhibition at 20 μM value was observed for CC(C)(C)c1cc(C=NCCCCNc2c3c(nc4ccccc24)CCCC3)cc(C(C)(C)C)c1O [14b] ?
Result: 26.6

Query: Would you mind telling me what CES % inhibition at 20 μM value was observed for CC(C)(C)c1cc(C=NCCCCCCNc2c3c(nc4ccccc24)CCC3)cc(C(C)(C)C)c1O [13c] ?
Result: 31.3

Query: Would you mind telling me what CES % inhibition at 20 μM value was observed for CC(C)(C)c1cc(C=NCCCCCCCCNc2c3c(nc4ccccc24)CCC3)cc(C(C)(C)C)c1O [13d] ?
Result: 26.3

Query: Would you mind telling me what CES % inhibition at 20 μM value was observed for CC(C)(C)c1cc(C=NCCCCCCNc2c3c(nc4ccccc24)CCCCC3)cc(C(C)(C)C)c1O [15c] ?
Result: 25.4

Query: Would you mind telling me what CES % inhibition at 20 μM value was observed for CC(C)(C)c1cc(CNCCCCCCNc2c3c(nc4ccccc24)CCC3)cc(C(C)(C)C)c1O [16c] ?
Result: 18.7

Query: Would you mind telling me what CES % inhibition at 20 μM value was observed for CC(C)(C)c1cc(C=NCCCCNc2c3c(nc4ccccc24)CCCCC3)cc(C(C)(C)C)c1O [15b] ?
Result: 26.3

Query: Would you mind telling me what CES % inhibition at 20 μM value was observed for CC(C)(C)c1cc(CNCCCCNc2c3c(nc4ccccc24)CCCCC3)cc(C(C)(C)C)c1O [18b] ?
Result: 21.4

* * *

Record form. Attribute: CES % inhibition at 20 μM. Fill in for each entry.
# Tested on: Porcine liver CES
# protocol.text: CES inhibition, spectrophotometric, 4-NPA substrate
# Assay type: biochemical
Kindly provide the numeric value in % only, without the unit symbol.

Query: Would you mind telling me what CES % inhibition at 20 μM value was observed for CC(C)(C)c1cc(CNCCCCCCCCNc2c3c(nc4ccccc24)CCCCC3)cc(C(C)(C)C)c1O [18d] ?
Result: 13.9

Query: Would you mind telling me what CES % inhibition at 20 μM value was observed for CC(C)(C)c1cc(CNCCCCCCCCNc2c3c(nc4ccccc24)CCCC3)cc(C(C)(C)C)c1O [17d] ?
Result: 23.6

Query: Would you mind telling me what CES % inhibition at 20 μM value was observed for CC(C)(C)c1cc(C=NCCCCCCCCNc2c3c(nc4ccccc24)CCCCC3)cc(C(C)(C)C)c1O [15d] ?
Result: 25.5

Query: Would you mind telling me what CES % inhibition at 20 μM value was observed for CC(C)(C)c1cc(CNCCCCCCNc2c3c(nc4ccccc24)CCCCC3)cc(C(C)(C)C)c1O [18c] ?
Result: 16.8

Query: Would you mind telling me what CES % inhibition at 20 μM value was observed for CC(C)(C)c1cc(CNCCNc2c3c(nc4ccccc24)CCCC3)cc(C(C)(C)C)c1O [17a] ?
Result: 18.4

Query: Would you mind telling me what CES % inhibition at 20 μM value was observed for CC(C)(C)c1cc(CNCCCCCCNc2c3c(nc4ccccc24)CCCC3)cc(C(C)(C)C)c1O [17c] ?
Result: 18.5

Query: Would you mind telling me what CES % inhibition at 20 μM value was observed for CC(C)(C)c1cc(C=NCCCCCCCCNc2c3c(nc4ccccc24)CCCC3)cc(C(C)(C)C)c1O [14d] ?
Result: 28.8

Query: Would you mind telling me what CES % inhibition at 20 μM value was observed for CC(C)(C)c1cc(CNCCCCCCCCNc2c3c(nc4ccccc24)CCC3)cc(C(C)(C)C)c1O [16d] ?
Result: 17.2

* * *

# tested.system: UniProt:P22303
# protocol.text: biochemical
# Format: biochemical
parameter: log10(IC50) (log10 of the value in nM)
For clarity, the numbers are log10 values of IC50 expressed in nM.

Query: Would you mind telling me what log10(IC50) value was observed for CC(C)(C)c1cc(CNCCCCCCCCNc2c3c(nc4ccccc24)CCCC3)cc(C(C)(C)C)c1O [17d] ?
Result: 1.18

Query: Would you mind telling me what log10(IC50) value was observed for CC(C)(C)c1cc(CNCCCCNc2c3c(nc4ccccc24)CCC3)cc(C(C)(C)C)c1O [16b] ?
Result: 2.96

Query: Would you mind telling me what log10(IC50) value was observed for CC(C)(C)c1cc(C=NCCCCCCNc2c3c(nc4ccccc24)CCCC3)cc(C(C)(C)C)c1O [14c] ?
Result: 1.85

Query: Would you mind telling me what log10(IC50) value was observed for CC(C)(C)c1cc(CNCCCCCCCCNc2c3c(nc4ccccc24)CCCCC3)cc(C(C)(C)C)c1O [18d] ?
Result: 1.49

Query: Would you mind telling me what log10(IC50) value was observed for CC(C)(C)c1cc(C=NCCCCCCNc2c3c(nc4ccccc24)CCCCC3)cc(C(C)(C)C)c1O [15c] ?
Result: 2.18

Query: Would you mind telling me what log10(IC50) value was observed for CC(C)(C)c1cc(C=NCCCCCCNc2c3c(nc4ccccc24)CCC3)cc(C(C)(C)C)c1O [13c] ?
Result: 2.32

Query: Would you mind telling me what log10(IC50) value was observed for CC(C)(C)c1cc(CNCCCCCCNc2c3c(nc4ccccc24)CCC3)cc(C(C)(C)C)c1O [16c] ?
Result: 2.31

Query: Would you mind telling me what log10(IC50) value was observed for CC(C)(C)c1cc(C=NCCCCNc2c3c(nc4ccccc24)CCCCC3)cc(C(C)(C)C)c1O [15b] ?
Result: 2.72

Query: Would you mind telling me what log10(IC50) value was observed for CC(C)(C)c1cc(CNCCCCCCNc2c3c(nc4ccccc24)CCCCC3)cc(C(C)(C)C)c1O [18c] ?
Result: 2.01

Query: Would you mind telling me what log10(IC50) value was observed for CC(C)(C)c1cc(C=NCCCCCCCCNc2c3c(nc4ccccc24)CCC3)cc(C(C)(C)C)c1O [13d] ?
Result: 2.03

Query: Would you mind telling me what log10(IC50) value was observed for CC(C)(C)c1cc(CNCCCCNc2c3c(nc4ccccc24)CCCC3)cc(C(C)(C)C)c1O [17b] ?
Result: 2.45

* * *

# tested.system: AChE (Homo sapiens, UniProt P22303)
# Sequence (P22303 other isoform, or with tags, fused parts or gaps): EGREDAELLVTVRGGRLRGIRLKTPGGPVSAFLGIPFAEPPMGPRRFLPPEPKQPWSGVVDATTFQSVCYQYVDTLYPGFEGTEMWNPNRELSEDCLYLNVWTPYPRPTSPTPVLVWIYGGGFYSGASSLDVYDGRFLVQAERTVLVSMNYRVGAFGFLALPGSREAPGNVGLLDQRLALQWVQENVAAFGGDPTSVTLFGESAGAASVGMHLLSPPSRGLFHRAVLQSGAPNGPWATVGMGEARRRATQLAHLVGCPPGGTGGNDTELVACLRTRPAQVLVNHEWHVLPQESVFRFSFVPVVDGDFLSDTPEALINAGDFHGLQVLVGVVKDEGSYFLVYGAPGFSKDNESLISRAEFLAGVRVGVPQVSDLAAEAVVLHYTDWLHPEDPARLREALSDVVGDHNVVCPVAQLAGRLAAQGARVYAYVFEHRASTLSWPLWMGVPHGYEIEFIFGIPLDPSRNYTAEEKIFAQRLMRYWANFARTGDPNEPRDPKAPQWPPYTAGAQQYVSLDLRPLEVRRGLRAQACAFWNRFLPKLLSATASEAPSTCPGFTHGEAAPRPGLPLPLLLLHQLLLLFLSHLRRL
# protocol.text: biochemical
# Assay type: biochemical
# settings: read-out: AChE Ki (competitive inhibition constant)
parameter: Ki (nM)
Kindly provide the numeric value in nM only, without the unit symbol.

Query: Would you mind telling me what Ki value was observed for CC(C)(C)c1cc(C=NCCCCCCNc2c3c(nc4ccccc24)CCCCC3)cc(C(C)(C)C)c1O [15c] ?
Result: 69.8

Query: Would you mind telling me what Ki value was observed for CC(C)(C)c1cc(CNCCCCCCNc2c3c(nc4ccccc24)CCCCC3)cc(C(C)(C)C)c1O [18c] ?
Result: 83.1

Query: Would you mind telling me what Ki value was observed for CC(C)(C)c1cc(C=NCCCCCCCCNc2c3c(nc4ccccc24)CCCCC3)cc(C(C)(C)C)c1O [15d] ?
Result: 19.9

Query: Would you mind telling me what Ki value was observed for CC(C)(C)c1cc(CNCCCCCCCCNc2c3c(nc4ccccc24)CCCCC3)cc(C(C)(C)C)c1O [18d] ?
Result: 13

* * *

# tested.system: Aβ42 (Homo sapiens)
# Sequence (P05067 672-713): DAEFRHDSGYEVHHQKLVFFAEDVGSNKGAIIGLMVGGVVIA
# protocol.text: Inhibition of Aβ42 self-aggregation, thioflavin T fluorescence
# Assay type: biochemical
# settings: Aβ42 50 µM, compound 100 µM; read-out: Inhibition of Aβ42 Self-Aggregation
parameter: inhibition at 100 µM (%)
Kindly provide the numeric value in % only, without the unit symbol.

Query: Would you mind telling me what inhibition at 100 µM value was observed for CC(C)(C)c1cc(CNCCCCCCNc2c3c(nc4ccccc24)CCCCC3)cc(C(C)(C)C)c1O [18c] ?
Result: 47.8

Query: Would you mind telling me what inhibition at 100 µM value was observed for CC(C)(C)c1cc(CNCCCCCCNc2c3c(nc4ccccc24)CCCC3)cc(C(C)(C)C)c1O [17c] ?
Result: 64.1

Query: Would you mind telling me what inhibition at 100 µM value was observed for CC(C)(C)c1cc(CNCCCCCCCCNc2c3c(nc4ccccc24)CCCC3)cc(C(C)(C)C)c1O [17d] ?
Result: 71.4

Query: Would you mind telling me what inhibition at 100 µM value was observed for CC(C)(C)c1cc(C=NCCCCCCCCNc2c3c(nc4ccccc24)CCCCC3)cc(C(C)(C)C)c1O [15d] ?
Result: 63.5

Query: Would you mind telling me what inhibition at 100 µM value was observed for CC(C)(C)c1cc(CNCCCCCCCCNc2c3c(nc4ccccc24)CCC3)cc(C(C)(C)C)c1O [16d] ?
Result: 54.6

Query: Would you mind telling me what inhibition at 100 µM value was observed for CC(C)(C)c1cc(CNCCCCCCCCNc2c3c(nc4ccccc24)CCCCC3)cc(C(C)(C)C)c1O [18d] ?
Result: 59.6

Query: Would you mind telling me what inhibition at 100 µM value was observed for CC(C)(C)c1cc(C=NCCCCCCNc2c3c(nc4ccccc24)CCCC3)cc(C(C)(C)C)c1O [14c] ?
Result: 62.4

Query: Would you mind telling me what inhibition at 100 µM value was observed for CC(C)(C)c1cc(C=NCCCCCCCCNc2c3c(nc4ccccc24)CCCC3)cc(C(C)(C)C)c1O [14d] ?
Result: 70.4

Query: Would you mind telling me what inhibition at 100 µM value was observed for CC(C)(C)c1cc(C=NCCCCCCNc2c3c(nc4ccccc24)CCCCC3)cc(C(C)(C)C)c1O [15c] ?
Result: 43.4

Query: Would you mind telling me what inhibition at 100 µM value was observed for CC(C)(C)c1cc(C=NCCCCCCCCNc2c3c(nc4ccccc24)CCC3)cc(C(C)(C)C)c1O [13d] ?
Result: 49.4
